Molecular target: T1, human Ror2 (human, UniProt Q01974 34-403, limits assumed)
T1 construct: also called hROR2; receptor tyrosine kinase-like orphan receptor 2
T1 sequence (Q01974 34-403 limits assumed): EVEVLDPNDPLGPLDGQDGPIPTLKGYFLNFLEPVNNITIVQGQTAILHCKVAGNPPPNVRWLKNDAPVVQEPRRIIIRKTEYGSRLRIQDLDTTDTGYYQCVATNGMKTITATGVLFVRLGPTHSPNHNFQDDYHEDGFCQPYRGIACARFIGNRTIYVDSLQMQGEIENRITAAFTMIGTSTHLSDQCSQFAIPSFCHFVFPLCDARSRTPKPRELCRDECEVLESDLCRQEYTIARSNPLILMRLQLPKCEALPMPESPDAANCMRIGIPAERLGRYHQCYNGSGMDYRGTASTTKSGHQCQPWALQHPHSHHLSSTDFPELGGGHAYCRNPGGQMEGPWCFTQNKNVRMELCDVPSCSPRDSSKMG
Assay: ELISA, human Ror2, pH 7.4; note: unit not given here
// criterion not met strictly below 0.3 in Affinity ELISA pH 7.4; criterion met otherwise

Here are 4 binders together with their reported answers.
[
  {
    "Binder": "LC-F097D (antibody, V domains shown) VH: EVQLQQSGPELVKPGASVKISCKTSGYTFTEYTMHWMKQSHRKSLEWIGGINTNNGGTGYNQKFKGKATLTVDKSSSTAYMELRSLTSEDSAVYFCARGSLYSYGNSYFDYWGQGTLVTVSS VL: QIVLTQSPAIMSASPGEKVTITCSATSSVSYMHWFQQKPGTSPKLWIYGTSNLASGVPARFSGSGSGTSYSLTISRMEAEDAATYYCQQRSSYPFTDGQGTKVEIK",
    "Answer label": "criterion not met"
  },
  {
    "Binder": "LC-Q089E (antibody, V domains shown) VH: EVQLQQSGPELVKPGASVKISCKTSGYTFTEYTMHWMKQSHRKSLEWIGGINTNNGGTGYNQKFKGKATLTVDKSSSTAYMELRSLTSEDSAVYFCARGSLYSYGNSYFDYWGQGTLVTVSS VL: QIVLTQSPAIMSASPGEKVTITCSATSSVSYMHWFQQKPGTSPKLWIYGTSNLASGVPARFSGSGSGTSYSLTISRMEAEDAATYYCQERSSYPFTFGQGTKVEIK",
    "Answer label": "criterion not met"
  },
  {
    "Binder": "LC-H033L (antibody, V domains shown) VH: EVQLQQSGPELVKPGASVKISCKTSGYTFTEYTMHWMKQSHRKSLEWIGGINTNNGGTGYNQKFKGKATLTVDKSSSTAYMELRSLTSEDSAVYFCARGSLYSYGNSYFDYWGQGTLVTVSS VL: QIVLTQSPAIMSASPGEKVTITCSATSSVSYMLWFQQKPGTSPKLWIYGTSNLASGVPARFSGSGSGTSYSLTISRMEAEDAATYYCQQRSSYPFTFGQGTKVEIK",
    "Answer label": "criterion met"
  },
  {
    "Binder": "LC-Y031D (antibody, V domains shown) VH: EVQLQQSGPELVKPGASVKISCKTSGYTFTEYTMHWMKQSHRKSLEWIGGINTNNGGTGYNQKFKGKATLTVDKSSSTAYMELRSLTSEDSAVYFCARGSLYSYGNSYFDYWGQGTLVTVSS VL: QIVLTQSPAIMSASPGEKVTITCSATSSVSDMHWFQQKPGTSPKLWIYGTSNLASGVPARFSGSGSGTSYSLTISRMEAEDAATYYCQQRSSYPFTFGQGTKVEIK",
    "Answer label": "criterion met"
  }
]

Now examine the next entry.
Assess whether reported Affinity ELISA pH 7.4 for LC-R090H (antibody, V domains shown) VH: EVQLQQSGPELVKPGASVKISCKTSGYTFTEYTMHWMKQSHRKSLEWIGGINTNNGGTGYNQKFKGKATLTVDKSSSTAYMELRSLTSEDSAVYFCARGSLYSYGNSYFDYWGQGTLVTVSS VL: QIVLTQSPAIMSASPGEKVTITCSATSSVSYMHWFQQKPGTSPKLWIYGTSNLASGVPARFSGSGSGTSYSLTISRMEAEDAATYYCQQHSSYPFTFGQGTKVEIK sits at 0.3 or higher. criterion not met
